# measured-target: T1, 4H796-bA
# T1 chain: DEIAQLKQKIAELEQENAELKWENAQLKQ
# method-description: two-hybrid library CCNG1;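 further: natural log of median RNA to DNA barcode read ratio; higher means stronger binding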

| binder | interaction score |
| --- | --- |
| DEIAQLKQENAELKQENAELKWEIAQLKQ [4H730-bA] | -0.666 |
| DEIAQLKQKIAELEQENAELKWENAQLKQ [4H796-bA] | 0.961 |
| DKIAQLEQKNAELKQENAELEWKIAQLKQ [4H2518-bA] | -1.33 |
| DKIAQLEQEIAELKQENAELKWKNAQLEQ [4H2143-bA] | -0.0583 |
